# Target or test system: Acrosin (Homo sapiens, UniProt P10323)
# Sequence (P10323 20-42 limits assumed): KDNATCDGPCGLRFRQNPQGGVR
# Sequence (P10323 43-343 limits assumed): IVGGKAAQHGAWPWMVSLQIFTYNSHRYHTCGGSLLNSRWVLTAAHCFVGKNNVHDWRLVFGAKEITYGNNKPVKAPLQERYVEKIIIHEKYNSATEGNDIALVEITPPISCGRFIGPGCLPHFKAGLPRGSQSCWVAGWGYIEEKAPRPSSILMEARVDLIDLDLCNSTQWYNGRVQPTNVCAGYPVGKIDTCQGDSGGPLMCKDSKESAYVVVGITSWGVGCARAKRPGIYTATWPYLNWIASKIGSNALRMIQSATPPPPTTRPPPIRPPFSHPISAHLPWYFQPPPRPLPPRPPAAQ
Measure: pIC50
Lab note: report pIC50 as minus log10 of the concentration in molar units, number only.

Item "CCOC(=O)c1cc(-c2ccc(NC(=O)c3c(Cl)cccc3Cl)cc2)n[nH]1" has what recorded pIC50? 2.32

Fill blank: measured pIC50 of the compound "CCOC(=O)c1cc(-c2ccc(NC(=O)c3ccc(OC)cc3)cc2)n[nH]1" is ____. 3.10

State the recorded pIC50 for this entry: "CCOC(=O)c1cc(-c2ccc(NC(=O)c3ccccc3Cl)cc2)n[nH]1" 3.96

Entry "CCOC(=O)c1cc(-c2ccc(NC(=O)c3ccc(F)cc3)cc2)[nH]n1" has what pIC50? 2.62

pIC50 for "CCOC(=O)c1cc(-c2ccc(NC(=O)CCCl)cc2)[nH]n1" ? 2.24

What value of pIC50 has been recorded for this entry: "CCOC(=O)c1cc(-c2ccc(NC(=O)c3ccc(C)cc3)cc2)n[nH]1" 1.46

Request the reported pIC50 associated with "CCOC(=O)c1cc(-c2ccc(NC(=O)c3ccc(Cl)cc3Cl)cc2)[nH]n1" 3.36

Could you share which pIC50 value was measured for "CCCCC(=O)Nc1ccc(-c2cc(C(=O)OCC)n[nH]2)cc1" ? 1.14

Which measured pIC50 value corresponds to "CCOC(=O)c1cc(-c2ccc(NC(=O)Cc3ccccc3)cc2)[nH]n1" ? 3.33

Consider the compound "CCOC(=O)c1cc(-c2ccc(NC(=O)c3c(F)cccc3F)cc2)[nH]n1" and give its measured pIC50. 2.40

Reference for the values: BindingDB's records for doi:10.1016/j.bmcl.2011.07.110
